Tested on: RXF 393 renal
Experiment: NCI tumour cell line growth inhibition, 48 h
For each of the compounds below, state its TGI.
Give bare numbers, in µM.

Example compounds with recorded TGI:
# SMILES CODE, TGI / µM
data = [
    ("CCOc1ccc2ncc(C#Cc3cncc(C(=O)Nc4ccc(CN5CCN(C)CC5)c(C(F)(F)F)c4)c3)n2n1", 2.34),
    ("O=C(CSc1nnc(-c2ccc(-c3nc4ccc(Cl)cc4[nH]3)cc2)o1)Nc1ccccc1", 6.52),
    ("CC[C@]12C=CCN3CC[C@@]4(c5ccc(OC)cc5N(C)[C@H]4[C@@](O)(C(=O)OC)[C@@H]1OC(=O)CCCC[P+](C1CCCCC1)(C1CCCCC1)C1CCCCC1)[C@@H]32", 5.4),
]

Please find the next compound below.
Query string: Report TGI for COc1ccc2[nH]c(O)c(N=NC(=O)COc3ccc(NC(=O)Nc4ccc(Cl)cc4)cc3)c2c1 tested on RXF 393 renal.
Result string: 22.2
